# tested_target: human adenosine A2b receptor (Homo sapiens (Human), UniProt P29275)
# Sequence (P29275 whole entry): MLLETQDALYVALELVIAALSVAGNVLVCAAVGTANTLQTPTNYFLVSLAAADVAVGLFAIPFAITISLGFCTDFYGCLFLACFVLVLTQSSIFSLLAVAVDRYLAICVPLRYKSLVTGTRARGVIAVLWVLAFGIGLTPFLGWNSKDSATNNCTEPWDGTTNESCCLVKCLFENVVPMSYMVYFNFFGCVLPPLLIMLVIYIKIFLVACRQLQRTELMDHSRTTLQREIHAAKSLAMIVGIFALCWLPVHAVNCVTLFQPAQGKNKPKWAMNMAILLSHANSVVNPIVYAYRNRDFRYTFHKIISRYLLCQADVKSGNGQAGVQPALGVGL
# protocol_description: Cellular in vitro reporter gene test for A2b receptor activity (CHO-K1, CRE-luciferase, NECA stimulation)
# Assay type: cell-based
# setup_conditions: recombinant CHO-K1 cell line, CRE-luciferase reporter, antagonism of EC50 concentration of NECA; in some cases means of several determinations, rounded to two significant figures; read-out: A2b receptor IC50
pIC50: −log10 of the molar value.
Decision: pIC50 compared against 8; not below it gives Met, below it gives Not met.

- CCn1c(=O)c2c(C(F)F)c(CN3CCNC3=S)sc2n(CCC(F)(F)F)c1=O: Met
- COCCn1c(=O)n(CC(C)(C)OC)c(=O)c2c(C)c(CN3CCNC(=O)C3=O)sc21: Not met
- CCn1c(=O)c2c(C)c(Cn3nc[nH]c3=O)sc2n(CCOC)c1=O: Not met

Problem: Tell me whether pIC50 is at least 8 here: "CCn1c(=O)c2c(C)c(CN3CCNC(=O)C3=O)sc2n(CCC(F)(F)F)c1=O"
Result: Met

Problem: Tell me whether pIC50 is at least 8 here: "CCn1c(=O)c2c(C)c(Cn3nc[nH]c3=O)sc2n(CCCOC)c1=O"
Result: Not met

Problem: Tell me whether pIC50 is at least 8 here: COCCn1c(=O)n(CC2CCCO2)c(=O)c2c(C)c(CN3CCNC3=O)sc21 (racemic) [Example 332]
Result: Not met

Problem: Tell me whether pIC50 is at least 8 here: "COCCn1c(=O)n(CC=C(C)C)c(=O)c2c(C)c(CN3CCNC3=O)sc21"
Result: Not met

---

# tested_target: human adenosine A2b receptor (Homo sapiens (Human), UniProt P29275)
# protocol_description: Cellular in vitro reporter gene test for A2b receptor activity (CHO-K1, CRE-luciferase, NECA stimulation)
# Type: cell-based
# setup_conditions: recombinant CHO-K1 cell line, CRE-luciferase reporter, antagonism of EC50 concentration of NECA; in some cases means of several determinations, rounded to two significant figures; read-out: A2b receptor IC50
pIC50: −log10 of the molar value.
Decision: pIC50 compared against 8; not below it gives y, below it gives n.

Problem: Tell me whether pIC50 is at least 8 here: CCn1c(=O)c2c(C)c(Cn3[nH]ccc3=O)sc2n(CC2CCCO2)c1=O (single isomer, unassigned) [Example 130]
Result: n

Problem: Tell me whether pIC50 is at least 8 here: "Cc1c(Cn2[nH]ccc2=O)sc2c1c(=O)n(C(C)C)c(=O)n2CCC(F)(F)F"
Result: n

Problem: Tell me whether pIC50 is at least 8 here: "COCCn1c(=O)c2c(C)c(CN3CCNC3=O)sc2n(CCOC)c1=O"
Result: n

---

# tested_target: human adenosine A2b receptor (Homo sapiens (Human))
# protocol_description: Cellular in vitro reporter gene test for A2b receptor activity (CHO-K1, CRE-luciferase, NECA stimulation)
# Format: cell-based
# setup_conditions: recombinant CHO-K1 cell line, CRE-luciferase reporter, antagonism of EC50 concentration of NECA; in some cases means of several determinations, rounded to two significant figures; read-out: A2b receptor IC50
value_kind: pIC50
Entry type: numeric. Quantity: pIC50, the -log10 of concentration in molar units.

Known results for molecules:
- CCCN1CCN(Cc2sc3c(c2C)c(=O)n(CCc2ccccc2)c(=O)n3CCOC)C1=O: 7.72
- Cc1c(CN2CCNC2=O)sc2c1c(=O)n(CC(C)(C)C)c(=O)n2CC1CCCO1 (single isomer, unassigned) [Example 408]: 7.92
- CCn1c(=O)c2c(C)c(CN3CCNC3=O)sc2n(CC2CCCO2)c1=O (single isomer, unassigned; enantiomer 1) [Example 69]: 8.01

Problem: Provide pIC50, system human adenosine A2b receptor (Homo sapiens (Human)), entry "Cc1c(CN2CCNC2=O)sc2c1c(=O)n(CC(F)F)c(=O)n2CCC(F)(F)F"
Result: 8.51

Source of measurements: patent US10428083B2
